Tested on: rat red blood cells
Measurement Description: Hemolytic activity test
Assay type: cell-based
Condition Info: red cells of rat, 1 h
Ends that are not written are not given here.
Quick list: HC50 (50% hemolytic concentration) per entry.

Substance	HC50 (50% hemolytic concentration)
FFRRFFRR-NH2 [(FFRR)2, FFRRFFRR-NH2]	>500 mg/L
LLKKLLKKLLKKLLKK-NH2 [(LLKK)4, LLKKLLKKLLKKLLKK-NH2]	~24 mg/L
LLRRLLRRLLRR-NH2 [(LLRR)3, LLRRLLRRLLRR-NH2]	>500 mg/L
FFRRFFRRFFRRFFRR-NH2 [(FFRR)4, FFRRFFRRFFRRFFRR-NH2]	~26 mg/L

## Input Value lookup for HC50 (50% hemolytic concentration); key = AARRAARRAARR-NH2 [(AARR)3, AARRAARRAARR-NH2]
## Output >500 mg/L

## Input Form field: reported HC50 (50% hemolytic concentration) of FFRRFFRRFFRR-NH2 [(FFRR)3, FFRRFFRRFFRR-NH2]
## Output >500 mg/L

## Input Fill in: HC50 (50% hemolytic concentration) of LLKKLLKKLLKK-NH2 [(LLKK)3, LLKKLLKKLLKK-NH2] is ___
## Output >500 mg/L

## Input Please report the recorded HC50 (50% hemolytic concentration) for LLRRLLRRLLRRLLRR-NH2 [(LLRR)4, LLRRLLRRLLRRLLRR-NH2] .
## Output ~12 mg/L

## Input Looking for the measured HC50 (50% hemolytic concentration) of LLKKLLKKC-NH2 [LLKKLLKKC-NH2] , can you help?
## Output >2500 mg/L

## Input Name the reported HC50 (50% hemolytic concentration) value associated with the substance MLLKKLLKKM-NH2 [MLLKKLLKKM-NH2]
## Output >2500 mg/L
